- subject-of-test: T1, HLA-A*01:01 (human)
- T1 construct: MHC class I monomer first loaded with a UV-sensitive peptide (not identified) that is cleaved by UV irradiation and exchanged for the tested peptide; captured on streptavidin plates, detected with anti-β2m; also called peptide-receptive MHC molecules
- assay-comment: UV-ligand exchange, anti-b2m ELISA
endpoint-name: peptide exchange yield

# peptide exchange yield of `DLKIDLAAQY` = 20 to 50%

# peptide exchange yield of `SMIRVGTNY` = 20 to 50%

# peptide exchange yield of `FTESNQYNIY` = > 75%

# peptide exchange yield of `VVFDKSDLAKY` = 20 to 50%

# peptide exchange yield of `EVTDRNMLAF` = 50 to 75%

# peptide exchange yield of `SANALILTY` = 20 to 50%

# peptide exchange yield of `GTKQWVHARY` = 10 to 20%

# peptide exchange yield of `LMTVLLKY` = 50 to 75%

# peptide exchange yield of `QLDSAVKNLY` = 50 to 75%

# peptide exchange yield of `RFDDINQEF` = 10 to 20%

# peptide exchange yield of `APDEVVALL` = 20 to 50%

# peptide exchange yield of `STEERRLNY` = 50 to 75%

# peptide exchange yield of `SGALDEAAAY` = 20 to 50%

# peptide exchange yield of `VSDHLQAGMLGQY` = 50 to 75%

# peptide exchange yield of `KSFDDIAKY` = 20 to 50%

# peptide exchange yield of `RLDEAMISY` = 50 to 75%
